From: PubChem BioAssay AID1159580

experiment: chemical genetic growth profiling, strain panel (AID 1159580);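 further: tested at 20 µM; growth read once vehicle control cultures reached saturation at 30 °C; 1 = growth at the plate median or of vehicle wells; lower values mean less growth of the strain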; conditions: S. cerevisiae deletion strains, growth OD, locus YNL250W, strain rad50, active compounds read low
Among all 5,500 compounds or so, about 2,000 (36%) were called active. Inconclusive results (about 18%) are left out. The list shows a part of the results.
Parameter: normalized growth
Could you respond with only the numeric value?

Examples with answers:
>>> numeric_readout("CC1(C)CC2C1CCC1(C)OC1CCC2(C)O (stereo not given)")
1.04
>>> numeric_readout("O=C(O)CCCCCCCCCCCCC1C=CCC1 (stereo not given)")
1.02
>>> numeric_readout("CC1(C)CC2C1CCC1(C)OC2(C)CCC1O (stereo not given)")
1.04
>>> numeric_readout("CC12CCCC(O)(C1)C1CC(C)(C)C1CC2 (stereo not given)")
1.04

Could you now consider this next compound?
Prompt line: // normalized growth lookup, key: O=C(O)CCCCC1SCC2NC(=O)NC21 (stereo not given)
Response line: 1.01

====

experiment: chemical genetic growth profiling, strain panel (AID 1159580);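 further: tested at 20 µM; growth read once vehicle control cultures reached saturation at 30 °C; 1 = growth at the plate median or of vehicle wells; lower values mean less growth of the strain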; settings: S. cerevisiae deletion strains, growth OD, locus YEL037C, strain rad23, active compounds read low
About 2,000 (36%) of roughly 5,500 compounds were called active. Roughly 18% stayed inconclusive and do not appear here. Some of the results follow.
Consider the cut-off 1. If the recorded normalized growth is strictly smaller, the label is label 1; if not, the label is label 0.

>>> class("CN(Cc1cc(Br)cc(Br)c1N)C1CCCCC1")
"label 0"

Prompt line: Quick check: normalized growth of Cc1cccc(CN2CCN(C(c3ccccc3)c3ccc(Cl)cc3)CC2)c1 (configuration not stated) under 1?
Response line: label 1

====

experiment: chemical genetic growth profiling, strain panel (AID 1159580);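 further: tested at 20 µM; growth read once vehicle control cultures reached saturation at 30 °C; 1 = growth at the plate median or of vehicle wells; lower values mean less growth of the strain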; details: S. cerevisiae deletion strains, growth OD, locus YOR316C, strain cot1, active compounds read low
Screen size: about 5,500 compounds; about 2,000 (36%) were called active. Another 18% or so got no clear call; they are omitted. The list shows a part of the results.
Listed molecules paired with reported normalized growth
Could you respond with only the numeric value?

Prompt line: // normalized growth lookup, key: CN(C)CCCO[C@H]1[C@@H](C(O)CO)OC2OC(C)(C)O[C@@H]21 (stereo not given in full)
Response line: 0.988

Prompt line: // normalized growth lookup, key: C=CC1=C(C)/C(=C/c2[nH]c(Cc3[nH]c(/C=C4\NC(=O)C(C)=C4C=C)c(C)c3CCC(=O)O)c(CCC(=O)O)c2C)NC1=O
Response line: 1.02

Prompt line: // normalized growth lookup, key: S=c1[nH]c2ccccc2s1
Response line: 1.02

====

assay: chemical genetic growth profiling, strain panel (AID 1159580);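 further: tested at 20 µM; growth read once vehicle control cultures reached saturation at 30 °C; 1 = growth at the plate median or of vehicle wells; lower values mean less growth of the strain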; settings: S. cerevisiae deletion strains, growth OD, locus YNL233W, strain BNI4, active compounds read low
The whole screen tested about 5,500 compounds, of which about 2,000 (36%) were called active. Not shown: some 18% with an inconclusive outcome. The list shows a part of the results.
Parameter: normalized growth
Could you respond with only the numeric value?

>>> numeric_readout("CCOc1ccc2c(c1)C(C)=CC(C)(C)N2")
0.978

Prompt line: // normalized growth lookup, key: CCn1cc(C(=O)O)c(=O)c2cnc(N3CCNCC3)nc21
Response line: 1.02

Prompt line: // normalized growth lookup, key: C#C[C@]1(O)CCC2C3CCc4cc(O)ccc4C3CC[C@@]21C (stereo not given in full)
Response line: 0.928

Prompt line: // normalized growth lookup, key: CCn1cc(C(=O)O)c(=O)c2ccc(C)nc21
Response line: 0.994

Prompt line: // normalized growth lookup, key: CCn1cc(C(=O)O)c(=O)c2cc3c(cc21)OCO3
Response line: 1.02
